Parameter TGI: see the listing below.
- Test system: OVCAR-8 ovarian
- method description: NCI tumour cell line growth inhibition, 48 h
measurement type: TGI

INSERT INTO results (compound, measurement_type, recorded_measurement) VALUES
  ('CCS(=O)(=O)c1ccc(OC)c(Nc2ncc(-c3cccc(OC)c3)o2)c1', 'TGI', '> 25 µM'),
  ('C=C(C)C1CC=C(C)C(=O)C1 (stereo unspecified)', 'TGI', '> 100 µM'),
  ('CCOC(=O)CC[C@H](N)C(=O)N[C@@H](Cc1ccc(N(CCCl)CCCl)cc1)C(=O)OCC', 'TGI', '1.99 µM'),
  ('Nc1cc(Cl)cc2cc(Cl)cnc12', 'TGI', '> 100 µM'),
  ('CCc1[nH]c(=O)nc(N)c1-c1ccc(N2CCCCC2)c([N+](=O)[O-])c1', 'TGI', '> 100 µM'),
  ('CCOC(=O)c1c(CN2CCN(c3ccccc3)CC2)n(-c2ccccc2)c2cc(Br)c(O)cc12', 'TGI', '57 µM'),
  ('C=CCCCCCCCCC(=O)NS(=O)(=O)c1ccccc1', 'TGI', '> 100 µM'),
  ('CC(=O)O[C@H]1C(=O)[C@@]2(C)[C@H]([C@H](OC(=O)c3ccccc3)[C@]3(O)C[C@H](OC(=O)[C@H](O)[C@@H](NC(=O)c4ccc(N)cc4)c4ccccc4)C(C)=C1C3(C)C)[C@]1(OC(C)=O)CO[C@@H]1C[C@@H]2O', 'TGI', '> 50 µM'),
  ('CN(C)CCn1c(=O)c2ccc(NCCNCCO)c3c(=O)c4ccccc4n(c1=O)c23', 'TGI', '5.64 µM'),
  ('COc1ccc2c(c1)C=C([N+](=O)[O-])C(C1OC(C)(C)OC1C1COC(C)(C)O1)O2 (stereo unspecified)', 'TGI', '11.4 µM'),
  ('COc1cc2c(/C=C3/C(=O)Nc4ccc(O)cc43)c(Cl)n(Cc3ccccc3)c2cc1C', 'TGI', '12.2 µM'),
  ('Cc1cc(C)c(C(=O)CC(=O)c2cccnc2)c(C)c1', 'TGI', '> 100 µM'),
  ('Cc1ccccc1N(CCC#N)C1=NN(C(=O)CC(=O)Nc2ccccc2)C(c2ccccc2)C1 (stereo unspecified)', 'TGI', '> 100 µM'),
  ('CCOC(=O)NC(=O)c1cn(CCOCCOC(=O)NCCCCCCNC(=O)OCCOCCn2cc(C(=O)NC(=O)OCC)c(=O)[nH]c2=O)c(=O)[nH]c1=O', 'TGI', '> 100 µM'),
  ('CCN(CCCl)c1cc(CN(C)C)cc(NC(=O)c2ccc(C(=O)Nc3cc(CN(C)C)cc(N(CC)CCCl)c3)cc2)c1', 'TGI', '1.63 µM'),
  ('CN1CCC23c4c5ccc(Oc6nnnn6-c6ccccc6)c4OC2c2[nH]c4ccccc4c2CC3(O)C1C5 (stereo unspecified)', 'TGI', '9.6 µM'),
  ('Cn1c(-c2cccs2)cc(-c2cccs2)c1-c1cccs1', 'TGI', '> 100 µM'),
  ('O=C(O)CC1OCC=C2CN3CCC45c6ccccc6NC4C1C2CC35 (stereo unspecified)', 'TGI', '> 100 µM'),
  ('CC(C)c1ccc(C(=O)Nc2sc3c(c2C(N)=O)CCC(=O)C3)cc1', 'TGI', '13.3 µM'),
  ('CCOC(=O)/C(C#N)=C/Nc1c(C)n(C)n(-c2ccccc2)c1=O', 'TGI', '> 100 µM'),
  ('COc1cc(C2=NN(C(C)=O)C(c3ccc(OC(C)=O)cc3OC(C)=O)O2)c(OC(C)=O)c2ccccc12 (stereo unspecified)', 'TGI', '33.7 µM'),
  ('O=C1c2ccccc2-c2c1c1ccccc1c(=O)n2Cc1ccccc1', 'TGI', '> 100 µM'),
  ('CCOC1=NC(=O)CC(c2ccccc2)S1 (stereo unspecified)', 'TGI', '> 100 µM'),
  ('CC(=O)[CH-]C(=O)c1ccccc1.CC(=O)[CH-]C(=O)c1ccccc1.O=C([O-])c1ccc([O-])cc1.O=C([O-])c1ccc([O-])cc1.[Ti+4]', 'TGI', '> 100 µM'),
  ('Cc1cccc(NC(=O)C(=O)Cc2nc3ccccc3[nH]c2=O)c1C', 'TGI', '> 100 µM'),
  ('Cc1ccc(C(=NN=C(N)N)c2ccc(C)cc2)cc1', 'TGI', '3.59 µM'),
  ('CN(C)CCNC(=O)c1cccc(C(=O)Nc2ccccc2)c1[N+](=O)[O-]', 'TGI', '> 100 µM'),
  ('COC(=O)Nc1nc2ccc(Oc3ccc(NC(=O)Nc4ccccc4)cc3)cc2[nH]1', 'TGI', '8.04 µM'),
  ('CN(C)CC/C(=N\Nc1c(Cl)cccc1Cl)c1ccccc1', 'TGI', '37.6 µM'),
  ('COC(=O)C1=NC(=S)NC(c2ccccc2)C1c1nc2ccccc2s1 (stereo unspecified)', 'TGI', '> 100 µM'),
  ('COc1cc2c(cc1C)NC(=O)/C2=C/c1cccnc1', 'TGI', '> 58.7 µM'),
  ('COC(=O)c1ccccc1/C=C1\Cc2c(ccc3c2CCC3)C1=O', 'TGI', '> 100 µM'),
  ('COc1cc2c(cc1OCCCNC(=O)c1cc3ccccc3[nH]1)N=C[C@@H]1CCCN1C2=O', 'TGI', '3.64 µM'),
  ('Cc1cccc2nc(-c3ccccc3)cc(=O)n12', 'TGI', '> 100 µM'),
  ('COc1ccc2c(c1)CCC1C3(CCCC21C)OCCO3 (stereo unspecified)', 'TGI', '50.4 µM'),
  ('COc1ccc(OC)c(/C=C/C(=O)N/N=C/c2ccc(Cl)cc2)c1', 'TGI', '> 100 µM');

The measurements presented in this section are drawn from PubChem BioAssay (NCI).
